Data origin, for the record: patent US7723527B2

Molecular target: human histamine H4 receptor (Homo sapiens)
Construct: expressed in transfected cells; host or cells: SK-N-MC cells or COS7 cells, transiently transfected; cell membranes used
Sequence (Q9H3N8 whole entry): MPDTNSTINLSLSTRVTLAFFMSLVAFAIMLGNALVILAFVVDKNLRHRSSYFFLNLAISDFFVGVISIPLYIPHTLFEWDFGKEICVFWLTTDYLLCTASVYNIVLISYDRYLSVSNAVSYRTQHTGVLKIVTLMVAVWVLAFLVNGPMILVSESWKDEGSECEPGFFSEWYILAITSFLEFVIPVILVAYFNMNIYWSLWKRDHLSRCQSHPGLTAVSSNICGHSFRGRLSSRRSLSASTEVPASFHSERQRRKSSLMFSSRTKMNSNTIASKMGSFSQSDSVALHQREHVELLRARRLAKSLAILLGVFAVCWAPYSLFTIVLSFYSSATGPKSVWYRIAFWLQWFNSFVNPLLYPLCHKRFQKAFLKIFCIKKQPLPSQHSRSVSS
Experiment: Binding assay on recombinant human histamine H4 receptor (3H-histamine displacement)
Details: competition binding with 3H-histamine; membranes of SK-N-MC or COS7 cells expressing human H4 receptor; Cheng-Prusoff, KD 5 nM, ligand 5 nM
Protocol: SK—N-MC cells or COS7 cells were transiently transfected with pH4R and grown in 150 cm^2 tissue culture dishes. Cells were washed with saline solution, scraped with a cell scraper and collected by centrifugation (1000 rpm, 5 min). Cell membranes were prepared by homogenization of the cell pellet in 20 mM Tris-HCl with a polytron tissue homogenizer for 10 s at high speed. […] Filters were then dried, mixed with scintillant and counted for radioactivity. […]
Ki less than 0.1 µM is TRUE; Ki greater than or equal to 0.1 µM is FALSE.

[[record]]
molecule = "COc1cc(OCCCC2CCN(C)CC2)ncc1-c1nc2c(C)cccc2[nH]1 [Example 119]"
classification = "TRUE"

[[record]]
molecule = "Cc1cc(C)c2nc(-c3cc(OCCCCC4CCN(C)CC4)ncc3Br)[nH]c2c1 [Example 131]"
classification = "TRUE"

[[record]]
molecule = "Cc1cccc2[nH]c(-c3ccc(OCCCN4CCN(C)CC4)cc3Cl)nc12 [Example 73]"
classification = "TRUE"

[[record]]
molecule = "Cc1c(F)ccc2[nH]c(-c3cnc(OCCCC4CCN(C)CC4)cc3CN3CCCC3)nc12 [Example 127]"
classification = "FALSE"

[[record]]
molecule = "Cc1cc(OCCOC2CCN(C)CC2)ccc1-c1nc2c(C)cc(Cl)cc2[nH]1 [Example 92]"
classification = "FALSE"

[[record]]
molecule = "Cc1c(F)ccc2[nH]c(-c3ccnc(OCCCCN4CCN(C)CC4)c3)nc12 [Example 141]"
classification = "TRUE"

[[record]]
molecule = "Cc1cc(Cl)cc2[nH]c(-c3ccc(OCCCN4CCN(C)CC4)nc3)nc12 [Example 103]"
classification = "TRUE"

[[record]]
molecule = "Cc1cc(Cl)cc2[nH]c(-c3ccc(OCCCC4CCN(C)CC4)cc3CN(C)C)nc12 [Example 82]"
classification = "TRUE"


Lookup: Please let me know if COc1cc(OCCCN2CCN(C)CC2)ccc1-c1nc2cc(C(F)(F)F)ccc2[nH]1 [Example 53] shows Ki below 0.1 µM.
Found: FALSE

Lookup: Please let me know if CN1CCN(CCCOc2ccc(-c3nc4cc(Cl)ccc4[nH]3)cc2)CC1 [Example 80] shows Ki below 0.1 µM.
Found: FALSE
